src = patent US20100047321A1

Recorded pKa for the following compounds
assay: pKa of additive
// no unit string in output, number only

In the examples that follow, each entry is paired with its recorded pKa.
CSc1nc2nc(C)cc(O)n2n1 ... 6.2
CC(=O)Nc1cccc(-n2[nH]nnc2=S)c1 [APMT, reference compound] ... 3.3
O=C1NS(=O)(=O)c2ccccc21 [Saccharin, saccharin, reference compound] ... 1.8
O=[N+]([O-])c1cc(Cl)cc2[nH]nnc12 ... 6
O=c1[nH][nH]c(=O)[nH]1 ... 5.8

Req: Query: pKa; subject: O=C1CCC(=O)N1 [Succinimide, succinimide, reference compound]
Resp: 9.4

Req: Query: pKa; subject: Cc1cc(O)n2ncnc2n1.[Na] [TAI, sodium salt]
Resp: 6.2

Req: Query: pKa; subject: O=c1cc[nH]c(=O)[nH]1 [Uracil, uracil, reference compound]
Resp: 9.2

Req: Query: pKa; subject: "Cc1nc2ncnn2c(O)c1Br"
Resp: 4.8

Req: Query: pKa; subject: "O=c1[nH]c(=O)c2[nH]c(=O)[nH]c2[nH]1"
Resp: 5.8

---

assay: Settling test of redispersed aqueous silver chloride/gelatin dispersion (silver assay of top samples); assay type: physicochemical; details: redispersal and testing after storage at 40° C. for 5 days
assay.readout: Effectiveness of additive in reducing settling

O=c1[nH][nH]c(=O)[nH]1 [Urazole, urazole] ... remarkably effective
O=C1CCC(=O)N1 [Succinimide, succinimide, reference compound] ... ineffective
Cc1cc(O)n2ncnc2n1.[Na] [TAI] ... remarkably effective
Cc1nc2ncnn2c(O)c1Br [Br-TAI] ... remarkably effective
CSc1nc2nc(C)cc(O)n2n1 [SMe-TAI] ... remarkably effective
O=C1NS(=O)(=O)c2ccccc21 [Saccharin, saccharin, reference compound] ... ineffective
O=c1[nH]c(=O)c2[nH]c(=O)[nH]c2[nH]1 [Uric acid, uric acid] ... remarkably effective
O=[N+]([O-])c1cc(Cl)cc2[nH]nnc12 [CN-BZT, 6-chloro-4-nitro-1H-benzotriazole] ... remarkably effective
O=c1cc[nH]c(=O)[nH]1 [Uracil, uracil, reference compound] ... ineffective

Attention now shifts to the item below.
Req: Query: Effectiveness of additive in reducing settling; subject: CC(=O)Nc1cccc(-n2[nH]nnc2=S)c1 [APMT, reference compound]
Resp: ineffective
